The origin of these recorded values is PubChem BioAssay (NCI).

Tested on: NCI/ADR-RES ovarian
Assay: NCI-60 one-dose screen, 48 h
Conditions: 10 µM unless noted
This is part of a sample that, as a whole, favours compounds with a hit. Of some 83,000 tested, about 20% had one in any assay. Calls of active or inactive are those of the source. Rule for the calls: active = growth percent below 10; inactive = the rest.
The reply should be one of these categories: yes (1) = active, no (0) = inactive

Could you check what this test reported for Cc1ccc(Nc2c(C(N)=O)cnc3ccc(-c4csc(N)n4)cc23)cc1 ?
no (0)

State the result this test recorded for Cc1ccc2cnc(N)c(C#Cc3cncc(C(=O)Nc4ccc(CN5CCN(C)CC5)c(C(F)(F)F)c4)c3)c2c1 .
yes (1)

# lookup: test call for CS(=O)(=O)c1c(Nc2ccccc2)n[nH]c1N
no (0)

Could you please tell me the result logged for C=C1CCC2C3(C)COC(c4ccc(SC)cc4)OC3CCC2(C)C1C/C=C1/C(=O)OCC1O (centres undefined) in this assay?
no (0)

For this compound, state the assay outcome: Cl/C(=N\Nc1ccccc1)c1ccccc1
no (0)

Just curious, what result did C/C(=C(/c1ccc(O)cc1)c1ccc(OCCN2CCCC2)cc1)c1ccccc1 get here?
no (0)

In this assay, the call recorded for CSc1[nH]c2ncnc(N)c2c1C#N was what?
no (0)

What classification did COc1ccc2[nH]c(=O)c(/C=C/C(=O)c3ccc(Nc4nccc(-c5ccc6ccccc6c5)n4)cc3)cc2c1 end up with in this test?
no (0)

I'd appreciate the recorded outcome for COc1cccc(-n2cc(-c3nc(Nc4cc(C)[nH]n4)c4ccccc4n3)nn2)c1 from this test.
no (0)

* * *

Exercise: for every item that follows, state its recorded growth.
Tested on: IGROV1 ovarian
Experiment: NCI-60 one-dose screen, 48 h (100 = growth as untreated, 0 = no growth, -100 = all killed)
Conditions: 10 µM unless noted
About 83,000 compounds went through this panel and 20% of them were active in at least one assay; those are over-represented in the sample as a whole.
Reply numerically in %, unit not repeated.

Can you share its growth? I mean this compound: Cc1ccc2c(c1)O/C(=C\c1cccc(OCC(=O)c3ccccc3)c1)C2=O
95.5

Name the recorded growth for NC(CC(=O)O)C(=O)OCc1ccccc1 (stereo not drawn) .
105

Would you mind telling me what growth value was observed for CC/C(Cc1ccccc1)=C(/c1ccc(O)cc1)c1ccc(OCCN2CCCC2)cc1 ?
13.9

For the compound shown here, COC(=O)[C@@H]1CC[C@]2(C)[C@H](CC[C@@H]3O[C@@]32C)[C@@]1(C)CC(=O)c1ccoc1 , give the reported growth.
105

Which growth is reported for this compound? O=C1c2cccnc2C(=O)c2c1c(C(=O)OCCN1CCOCC1)c1ccccn21
1.32

What value of growth has been recorded for this entry: COC1/C=C\OC2(C)Oc3c(C)c(O)c4c(O)c(c(CN(C)CCO)c(O)c4c3C2=O)NC(=O)/C(C)=C\C=C/C(C)C(O)C(C)C(O)C(C)C(OC(C)=O)C1C (stereo not drawn)
95.9

So what does the record say about growth for CCCNc1nc(SC)nc(-c2cccc(N)c2)c1C#N ?
92.2

Given the entry CCC(C)[C@@H]1NC(=O)[C@@H]2CCCN2C(=O)[C@H](Cc2ccccc2)NC(=O)[C@@H]2CCCN2C(=O)[C@H](Cc2ccccc2)NC(=O)[C@@H]2CCCN2C(=O)[C@H](Cc2ccccc2)NC1=O (stereo partly drawn) , report its measured growth.
120

Any idea what its growth is? The compound is CCCCCCCCCCCCCCCCNCCC[C@@H](C)[C@H]1CC[C@H]2[C@@H]3[C@H](OCCCN)C[C@@H]4C[C@H](OCCCN)CC[C@]4(C)[C@H]3C[C@H](OCCCN)[C@]12C
-41.8

Value lookup for growth; key = O=S(=O)(NCCCNc1cc(-c2cn(-c3ccccc3)nc2-c2ccccc2)ccn1)c1ccc(C(F)(F)F)cc1
59.2

Value lookup for growth; key = COc1cc2c(c(OC)c1OC)-c1ccc(N=NC(N)=S)c(=O)cc1[C@@H](NC(C)=O)CC2
5.37

Give the measured growth of O=C1C2CC=CCC2C(=O)N1CNc1ccc(Cl)cc1 (stereo not drawn) .
74.6

Given the entry Oc1cc(O)c2c(=S)cc(-c3ccc(Cl)cc3)oc2c1 , report its measured growth.
26.1

* * *

Tested on: RPMI-8226 leukemia
Test: NCI-60 one-dose screen, 48 h (100 = growth as untreated, 0 = no growth, -100 = all killed)
Conditions: 10 µM unless noted
Compounds without any hit were thinned out: in the full panel of roughly 83,000, 20% have a hit.
MEASUREMENT_NAME: growth (%)
I only need the number, in %, no unit after it.

Entry COc1ccc(-c2cc(-c3cccnc3)nc3sc4c(=O)n(-c5ccc(C)cc5)nnc4c23)cc1OC : reported growth = ?
99.7

Which growth is reported for this molecule? COC(=O)[C@H](C(C)C)n1c(=O)c2cc(OC)c(OC)cc2c2cnc3[nH]ccc3c21
55

Which value of growth has been reported for CCCCCCCCCCCCCCCCCCSC1=CC(=O)C(OC)=C(OC)C1=O in the records?
40.8

What measured growth goes with CN(C)c1ccc(/C=C\C2=[N+](C)c3ccccc3C2(C)C)cc1 ?
66.5

Any idea what its growth is? The molecule is Cc1ccc(/C=C2\Oc3cc(OCC(=O)c4ccc(Cl)cc4)ccc3C2=O)cc1
248

May I ask what growth has been recorded for CN1CCN(Cc2ccc(NC(=O)c3cncc(C#Cc4c(N)ncc5ccc(C#N)cc45)c3)cc2C(F)(F)F)CC1 ?
-23

Given Oc1cccc(Nc2nccc(-c3ccc4ccccc4c3)n2)c1 , state its recorded growth.
9.15

Which growth is listed for CC1=CC(=O)CC(C)(C)[C@@]1(O)/C=C/[C@@H](C)O ?
109

What does the record list as growth for COc1cc(-c2cc(-c3nc4ccc(Cl)cc4[nH]3)[nH]n2)cc(OC)c1OC ?
9.58

* * *

Test system: LOX IMVI melanoma
Assay: NCI-60 one-dose screen, 48 h (100 = growth as untreated, 0 = no growth, -100 = all killed)
Conditions: 10 µM unless noted
This is part of a sample that, as a whole, favours compounds with a hit. Of some 83,000 tested, about 20% had one in any assay. The source made the active and inactive calls. How the source made its calls: active means growth percent below 10; inactive means the rest.
MEASUREMENT_NAME: growth

Fill in the blank: the reported growth of CCN(CC)CC(C)Nc1ccc([N+](=O)[O-])c2sc3ccccc3c(=O)c12 (stereo not drawn) is ____.
14.7% (inactive)

Requested field: growth. Item: COc1cc(OC)c(/C=C/C(=O)c2c(OC)cc(OC)cc2OC)c(OC)c1
10.8% (inactive)

growth lookup needed for CN(C)CCOc1ccc(-c2nc3ccc(-c4nc5ccc(N6CCN(C)CC6)cc5[nH]4)cc3[nH]2)cc1 , thanks.
67.9% (inactive)

* * *

System: SF-268 CNS
Assay: NCI-60 one-dose screen, 48 h
Details: 10 µM unless noted
About 83,000 compounds went through this panel and 20% of them were active in at least one assay; those are over-represented in the sample as a whole. Calls of active or inactive are those of the source. How the source made its calls: active means growth percent below 10; inactive means the rest.
Choose one outcome from this list and give only that: YES = active, NO = inactive

How was COc1ccc2[nH]c(=O)c(/C=C/C(=O)c3ccc(Nc4nccc(-c5ccc6ccccc6c5)n4)cc3)cc2c1 classified in this test?
NO

Hi, sorry to bother you, what did the test record for CC(=O)C1=C(O)C=C2Oc3c(C(=O)/C=C/c4cc(Cl)cc(Cl)c4)c(O)c(C)c(O)c3[C@]2(C)C1=O ?
YES

Dear colleague, could you share the recorded outcome for CN(C)C(=O)c1cc2cnc(Nc3ccc(-c4csc5c(=O)cc(N6CCNCC6)oc45)cc3)nc2n1C1CCCC1 when you have a moment?
NO

Write down the call the test reported for this compound. Item: O=C1c2cc3c(cc2-c2c1c1cc(Cl)c(Cl)cc1c(=O)n2CCCn1ccnc1)OCO3
NO

In this assay, the call recorded for Cc1nn(-c2ccccc2)c2nc(C)n(-c3ccc(Br)cc3)c(=O)c12 was what?
NO

I would be grateful if you could indicate the recorded call for COc1ccc(CCN2CC=Cn3c2nc2ccccc2c3=O)cc1 .
NO

Hey, what did the test say about Cl/C(=N\Nc1ccccc1)c1ccccc1 ?
NO

Just curious, what result did CCOC(=O)C(=Cc1ccccc1F)C(=O)OCC get here?
NO

Which outcome was assigned to O=C(Nc1cccc2c1C(=O)c1cccc(Nc3cccc4c3C(=O)c3cccc(NC(=O)c5ccccc5)c3C4=O)c1C2=O)c1ccccc1 in this test?
NO

Short answer needed: outcome of this test for CN(C)CCOc1ccc(-c2nc3ccc(-c4nc5ccc(N6CCN(C)CC6)cc5[nH]4)cc3[nH]2)cc1 ?
NO

Recorded call for O=C(/C=C/c1cccc(Br)c1)c1ccccc1 ?
NO

Which outcome was assigned to O=[N+]([O-])c1cccc(-c2nc3sccn3c2-c2ccnc(NCCCNS(=O)(=O)c3cccc(F)c3)n2)c1 in this test?
NO

So what was the verdict on O=C1c2c[n+](Cc3ccccc3)ccc2-c2nc3ccccc3c3ccnc1c23 in this test?
YES

Each compound tested received a call. Report the one for CCCCCCCCCC(=O)Oc1ccc(/C(=C(/C)c2ccccc2)c2ccc(OCCN3CCCC3)cc2)cc1 .
NO
